# Experimental Details: self-splicing fitness, log relative to wild type (ln ratio); higher = more splicing; Tetrahymena group I intron in knt gene, E. coli kanamycin selection, DiMSum; sequences stand for … in CUCUCU…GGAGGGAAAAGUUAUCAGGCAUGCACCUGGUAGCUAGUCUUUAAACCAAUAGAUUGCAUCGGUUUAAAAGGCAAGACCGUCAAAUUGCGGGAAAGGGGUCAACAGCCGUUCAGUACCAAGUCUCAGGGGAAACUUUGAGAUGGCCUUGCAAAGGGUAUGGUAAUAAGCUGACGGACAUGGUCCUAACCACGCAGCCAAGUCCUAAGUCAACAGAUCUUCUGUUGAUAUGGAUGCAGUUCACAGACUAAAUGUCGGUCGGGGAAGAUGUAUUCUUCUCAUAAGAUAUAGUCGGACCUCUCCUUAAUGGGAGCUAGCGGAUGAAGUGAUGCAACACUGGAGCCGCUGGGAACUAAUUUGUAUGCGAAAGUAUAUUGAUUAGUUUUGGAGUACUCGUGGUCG;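 further: selection with 25 µg/mL kanamycin versus none on LB agar overnight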
# Measurement Context: 37 °C
# if value of self-splicing fitness (ln) reaches -1, tag T; if it stays below, tag F

> print(dat)
    macromolecule.sequence  class.assignment
 1    UUAUAGCAAUAUUACGGUUG                 T
 2    AUGCAGCAAUAUUACGUAAG                 T
 3    AGACAGCAAUAUUACGUGGC                 F
 4    GCUGAGCAAUAUUACGAUUU                 T
 5    UUACAGCAAUAUUACGCUCA                 T
 6    GGUGAGCAAUAUUACGUGGC                 F
 7    UUUCAGCAAUAUUACGCAUG                 T
 8    CUCAAGCAAUAUUACGCGGA                 F
 9    GUUAAGCAAUAUUACGGGCC                 F
10    UUACAGCAAUAUUACGAGCG                 T
11    UUAAAGCAAUAUUACGAGCA                 T
12    CUCGAGCAAUAUUACGGCGG                 T
13    UUUAAGCAAUAUUACGUAGA                 T
14    GUGUAGCAAUAUUACGCCCG                 T
15    CAGGAGCAAUAUUACGCUGC                 F
16    GUUGAGCAAUAUUACGUUAA                 F
17    ACAUAGCAAUAUUACGUCUC                 F
18    UUAGAGCAAUAUUACGGCUC                 F
19    UAUUAGCAAUAUUACGGAUG                 T
20    GUAAAGCAAUAUUACGGAAC                 F
21    CUAUAGCAAUAUUACGUGUG                 T
22    GUCUAGCAAUAUUACGUGGC                 F
23    GCAGAGCAAUAUUACGGGCG                 T
24    GACAAGCAAUAUUACGUGUG                 F
25    CAAUAGCAAUAUUACGCGCG                 T
26    GGCUAGCAAUAUUACGAGAA                 T
27    UGGCAGCAAUAUUACGUGAG                 T
28    UAGUAGCAAUAUUACGCCGG                 T
29    AGGUAGCAAUAUUACGCACC                 F
30    ACUUAGCAAUAUUACGUGUA                 F
31    GCCAAGCAAUAUUACGCCAG                 F
32    AAAAAGCAAUAUUACGAGCU                 T
33    AAUGAGCAAUAUUACGUGUC                 F
34    GCCUAGCAAUAUUACGCUUG                 F
35    CCAGAGCAAUAUUACGAGGG                 F
36    GAUGAGCAAUAUUACGAUGU                 F
37    GUCGAGCAAUAUUACGUAAG                 F
38    GGACAGCAAUAUUACGCAAG                 F
39    AGAAAGCAAUAUUACGGACA                 T
40    AAUAAGCAAUAUUACGCUAC                 F
41    AAGAAGCAAUAUUACGGUUU                 T
42    AGGCAGCAAUAUUACGUUGA                 F
43    UUCUAGCAAUAUUACGCACA                 T
44    CCAUAGCAAUAUUACGUCAU                 F
45    UUUAAGCAAUAUUACGAUGA                 T
46    GGGAAGCAAUAUUACGCGGA                 F
47    CCACAGCAAUAUUACGCGAU                 F
48    AGUGAGCAAUAUUACGAUGA                 F
49    UCGUAGCAAUAUUACGAUCA                 T
50    CUCGAGCAAUAUUACGGAAG                 F
51    GCCCAGCAAUAUUACGGCUA                 T
52    AACCAGCAAUAUUACGGGAG                 T
53    AAAGAGCAAUAUUACGUCCG                 F
54    AGUAAGCAAUAUUACGGUGC                 F
55    CCGCAGCAAUAUUACGAUGU                 F
56    GUGAAGCAAUAUUACGACGC                 T
57    GGCGAGCAAUAUUACGUAAC                 T
58    GAUCAGCAAUAUUACGUCAA                 T
59    GACAAGCAAUAUUACGUACA                 T
60    GUAUAGCAAUAUUACGGGAU                 T
61    GGUAAGCAAUAUUACGACAG                 F
62    GAGCAGCAAUAUUACGGUGU                 F
63    ACACAGCAAUAUUACGUAAG                 T
64    CACUAGCAAUAUUACGUAAU                 F
65    AAUCAGCAAUAUUACGAACA                 T
66    GAGAAGCAAUAUUACGGCAA                 T

These entries and their values trace back to the supplement of paper PMC7877785.
